Cited source: PubChem BioAssay

# run_description: growth inhibition of GSK3B-pretreated HCT116 cells – cell-based, CellTiter-Glo, 0.2 to 20 µM (AID 1117336)
# reported_conditions: HCT116 viability after GSK3B inhibitor, at 20 µM, stronger effect = higher value
assay_metric: viability decrease (%)
API: value field is a number in %; no unit string.

compound	assay_metric	data_value
FC(F)(F)c1cccc(C2=CCN(CCc3ccc4ccccc4c3)CC2)c1	viability decrease	40.2
CCCOC(=O)c1cncn1C(C)c1ccccc1 (configuration not stated)	viability decrease	-12.2
CNC(C)Cc1ccccc1OC (configuration not stated)	viability decrease	-1.3
C[C@@H]1O[C@@H](O[C@H]2C[C@@H](O)[C@]3(CO)[C@H]4[C@H](O)C[C@]5(C)[C@@H](C6=CC(=O)OC6)CC[C@]5(O)[C@@H]4CC[C@]3(O)C2)[C@H](O)[C@H](O)[C@H]1O	viability decrease	84.8
COc1ccc(Cc2nccc3cc(OC)c(OC)cc23)cc1OC	viability decrease	54.7
CCCCCCCCCCCC[N+](C)(C)CCOc1ccccc1	viability decrease	110
CCCN(CCC)C(=O)Cc1c(-c2ccc(Cl)cc2)nc2ccc(Cl)cn12	viability decrease	10.8
COP(=O)(OC)OC=C(Cl)Cl	viability decrease	37
O=C1c2ccccc2C(=O)C1C(=O)C(c1ccccc1)c1ccccc1	viability decrease	91.3
CC(CCc1ccccc1)NC(C)C(O)c1ccc(O)cc1 (configuration not stated)	viability decrease	-3.7

Enquiry: Report viability decrease for "CC(C)(C)NC[C@H](O)c1ccc(O)cc1Cl" please.
Return: 13.2

Enquiry: What would you report for "NP(N)(=O)NC(=O)c1ccc(F)cc1" ?
Return: -1.25

Enquiry: Next compound up: "CC(=O)Nc1cc([As](=O)(O)O)ccc1O"
Return: -42.6

Enquiry: Moving on to "Nc1nc(N)nc(NC2CC2)n1"
Return: -16.8

Enquiry: Then "C#CCN(C)[C@H](C)Cc1ccccc1" ?
Return: 1.9

Enquiry: Request: "COc1cc(CC#N)cc(OC)c1OC"
Return: 2.6

====

Examples of molecules with documented inhibition follow.
# target_or_system: 6-phosphogluconate dehydrogenase, decarboxylating (Homo sapiens)
# run_description: 6PGD enzyme inhibitors, primary screen, biochemical, human, recombinant enzyme, NADPH absorbance (AID 1159550)
# reported_conditions: recombinant 6PGD, NADPH absorbance 341 nm; at 10 µM; stronger effect = higher value
Please reply with the bare figure in % and do not write the unit itself.

Reference set (2 entries):
molecule	target_or_system	inhibition (%)
CC1CC(O)C2(O)C13CC(=O)OCC2(C)C(C)(O)C(=O)C3 (configuration not stated)	6-phosphogluconate dehydrogenase, decarboxylating (Homo sapiens)	17.6
COC[C@]12CN(C=O)C3[C@@H]4C(OC)C1[C@]3(C1CC3(O)C(OC)C(O)C4(OC(C)=O)C1C3OC(=O)c1ccccc1)[C@@H](OC)C[C@H]2O (some centres not stated)	6-phosphogluconate dehydrogenase, decarboxylating (Homo sapiens)	-2.18

Next item in the queue.
Enquiry: Request: inhibition, test system 6-phosphogluconate dehydrogenase, decarboxylating (Homo sapiens), entry "C=C1[C@@H]2CC[C@H]3[C@]4(C)C[C@H](O[C@@H]5O[C@H](CO)[C@@H](OS(=O)(=O)O)[C@H](OS(=O)(=O)O)[C@H]5OC(=O)CC(C)C)C[C@@H](C(=O)O)[C@H]4CC[C@]3(C2)[C@H]1O"
Return: 5.29

====

# run_description: modulation of C. elegans fzo-1 (AID 1259413);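 further: fzo-1 mutant C. elegans worms in liquid wells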
# reported_conditions: C. elegans fzo-1 modulator screen, mean read-out
Activity calls are given as the source filed them. No rule for the calls is given here.
Pick one and only one: active, inactive

Enquiry: Call for entry C=C1C[C@@H]2[C@H](CCC3(C)C(=O)CC[C@@H]23)C2(C)C=CC(=O)C=C12 (some centres not stated) :
Return: inactive

Enquiry: Can you check CC(C)(O)[C@@H]1[C@H]2OC(=O)[C@@H]1C1(O)C[C@H]3O[C@]34C(=O)O[C@H]2[C@]14C (some centres not stated) (tested in a mixture with another compound) next?
Return: inactive

Enquiry: What do you get for CC12CC[C@H](O)CC1=CC[C@@H]1[C@@H]2CCC2(C)[C@H]1CC[C@]2(C)O (some centres not stated) ?
Return: inactive

Enquiry: Next record, please: "CN1CC[C@@]23CCCC[C@@H]2[C@@H]1Cc1ccc(O)cc13"
Return: inactive

Enquiry: Next molecule up: "CN1CCN(C(=O)O[C@H]2c3nccnc3C(=O)N2c2ccc(Cl)cn2)CC1"
Return: active

Enquiry: Same thing, different molecule: Oc1ccc2c3c1O[C@H]1c4[nH]c5ccccc5c4CC4(O)C(C2)N(CC2CC2)CC[C@]314 (some centres not stated)
Return: inactive

Enquiry: And "C#CCN(C)[C@H](C)Cc1ccccc1" ?
Return: inactive

Enquiry: Now this one: "CC(C)c1cccc(C(C)C)c1O"
Return: inactive

Enquiry: Next: O=P1(N(CCCl)CCCl)NCCCO1 (configuration not stated)
Return: inactive

====

# run_description: Cy5 fluorescence quenching or enhancement artefacts, artefact control for HCV NS3 helicase inhibitor project, biochemical, LOPAC1280 (AID 687037)
# reported_conditions: Cy5-DNA-NS3h complex fluorescence interference counterscreen
assay_metric: fluorescence ratio (interference)
A bare number is all that is needed in reply.

molecule	fluorescence ratio (interference)
NNC(N)=O	1
C[C@H]1C2Cc3ccc(O)cc3[C@@]1(C)CCN2CC1CC1	1
N#CC(C#N)=Cc1ccc(O)c(O)c1	1
CCCN1CCc2cccc3c2[C@H]1Cc1ccc(O)c(O)c1-3	1
O=c1[nH]oc2c1CCNC2	1
Cc1c2ccncc2c(C)c2c1[nH]c1ccccc12	1
CC(N)C(=O)OC(C)(C)Cc1ccc(Cl)cc1 (stereo not given)	1
OC1CCCCC1N1CCC(c2ccccc2)CC1 (stereo not given)	1
Clc1ccc(N2CC3CCC(C2)N3)nn1	1
c1ccc2sc(C3(N4CCCCC4)CCCCC3)cc2c1	1

Enquiry: May I ask what fluorescence ratio (interference) has been recorded for "Cc1cccc(C)c1NC(=O)CN1CCCC1=O" ?
Return: 1

Enquiry: One more molecule: Cc1o[nH]c(=O)c1CC(N)C(=O)O (stereo not given)
Return: 0.9

Enquiry: What do we get for "CCCn1c(=O)c2[nH]c(C3CCCC3)nc2n(CCCOC(=O)c2ccc(S(=O)(=O)F)cc2)c1=O" ?
Return: 1

Enquiry: Now this one: COC(=O)N1CCN(C(=O)Cc2ccc(Cl)c(Cl)c2)C(CN2CCCC2)C1 (stereo not given)
Return: 1

Enquiry: Same for "C[Se]C[C@H](N)C(=O)O"
Return: 1

Enquiry: Then "CCCN(CCC)[C@@H]1CCc2ccc(O)cc2C1" ?
Return: 1.1

Enquiry: Further, for NC(=O)c1ccc(OCC(O)CN2CC=C(c3ccc(F)cc3)CC2)cc1 (stereo not given) ?
Return: 0.9

Enquiry: What about this molecule? C[C@@H]1O[C@@H](O[C@H]2C[C@@H](O)[C@]3(CO)[C@@H]4C(CC[C@]3(O)C2)[C@@]2(O)CC[C@H](C3COC(=O)C3)[C@@]2(C)C[C@H]4O)[C@H](O)[C@H](O)[C@H]1O (stereo not given in full)
Return: 1

Enquiry: # iterate: "C[C@H](Cc1ccc2c(c1)OC(C(=O)O)(C(=O)O)O2)NC[C@H](O)c1cccc(Cl)c1"
Return: 1

====

# run_description: sensitizers of A549 cells to miR-34 induction, primary screen, imaging, A549 dox-inducible miR-34, nuclei and caspase counts (AID 1347080)
# reported_conditions: A549 miR-34 inducible, Hoechst nuclei count, 48 h; measured here: total cells with miR-34 induction; stronger effect = lower value
# note: boundary value 10000 maps to not fulfilled; cell count below it maps to fulfilled

compound	assigned_category
O=C(O)/C=C/CO	fulfilled
CCCCCCCCCCCCCCCC(=O)OC[C@H](COP(=O)([O-])OCC[N+](C)(C)C)OC(=O)CCCC=O	fulfilled
C=C[C@H]1CN2CC[C@H]1C[C@@H]2[C@H](O)c1ccnc2ccccc12	not fulfilled
NC(=O)c1ccc(OCC(O)CN2CC=C(c3ccc(F)cc3)CC2)cc1 (centres undefined)	fulfilled
Cc1ccc(-c2nc3ccc(C)cn3c2CC(=O)N(C)C)cc1	fulfilled

Enquiry: Say whether its cell count is strictly beneath 10000. Entry: CCN1C[C@@]2(COC)C3[C@@H](OC)[C@H]4[C@@H]1[C@]3(C(OC)C[C@H]2O)C1C[C@@]2(O)[C@H](OC(=O)c3ccccc3)C1[C@]4(OC(C)=O)[C@@H](O)[C@@H]2OC (some centres undefined)
Return: not fulfilled

Enquiry: Moving on to CCNC(=O)CC1N=C(c2ccc(Cl)cc2)c2cc(OC)ccc2-n2c(C)nnc21 (centres undefined)
Return: fulfilled

Enquiry: Now give it for "CCCCCCCCCCCCCCCCSP(=O)([O-])OCC[N+](C)(C)C" too.
Return: fulfilled

Enquiry: Same question for C=CCN1CC[C@]23c4c5ccc(O)c4OC2C(=O)CC[C@@]3(O)[C@H]1C5 (some centres undefined) please.
Return: not fulfilled

Enquiry: Here is the next compound: "CCCCCCCCCCCCCC(=O)O[C@@H]1[C@@H](C)[C@@]2(O)[C@@H](C=C(CO)C[C@]3(O)C(=O)C(C)=C[C@@H]23)[C@@H]2C(C)(C)[C@]12OC(C)=O"
Return: fulfilled

Enquiry: Queued: "CN=C(NS(=O)(=O)c1ccc(Cl)cc1)N1C[C@@H](c2ccccc2)C(c2ccc(Cl)cc2)=N1"
Return: fulfilled

Enquiry: Record: "CCCCC/C=C\C/C=C\C/C=C\C/C=C\CCCC(=O)NCCS(=O)(=O)O"
Return: fulfilled

Enquiry: How about CC(C)c1c(CN(C)C(C)Cc2ccccc2)n(C)n(-c2ccccc2)c1=O (centres undefined) ?
Return: fulfilled

Enquiry: Now the same for "N#CC(C#N)=NNc1ccc(OC(F)(F)F)cc1"
Return: fulfilled

Enquiry: Let us now turn to "CN1CCc2cc(O)cc3c2[C@H]1Cc1ccc(O)c(O)c1-3"
Return: fulfilled

Enquiry: How about this compound: "CCC[C@@H]1CC2=CC(=O)CC[C@]2(C)[C@H]2CC[C@@]3(C)[C@@H](CC[C@@]3(O)CCC(=O)O)[C@H]12"
Return: fulfilled

Enquiry: Now the compound CC(CO)NC(=O)C1C=C2c3cccc4[nH]cc(c34)C[C@H]2N(C)C1 (some centres undefined)
Return: not fulfilled
